Measure name: melting point

{"Compound": "CC(=O)c1ccc(C2=NCc3c(Cl)cc(Cl)cc3-n3cccc32)cc1", "Test value": "250.2 to 254.2 °C"}
{"Compound": "CC(=O)c1ccc(C2NCc3ccc(Cl)cc3-n3cccc32)cc1 (centres unmarked)", "Test value": "185.4 to 186.9 °C"}
{"Compound": "CC(=O)c1cc(C2=NCc3c(Cl)cc(Cl)cc3-n3cccc32)ccc1F", "Test value": "192.3 to 193.4 °C"}
{"Compound": "CC(=O)c1ccc(C2NCc3cc(Cl)cc(Cl)c3-n3cccc32)cc1.Cl (centres unmarked)", "Test value": "259.3 to 264.5 °C"}
{"Compound": "CC(=O)c1cc(C2=NCc3c(Cl)cccc3-n3cccc32)ccc1F", "Test value": "146.2 to 147.7 °C"}
